These data points were gathered from patent US10786508B2.

- SYSTEM_TESTED: glucocerebrosidase (Gcase) (Homo sapiens)
- Construct: micellar solution containing 10 nM GCase and 100 nM saposin C
- Sequence (P04062 40-536): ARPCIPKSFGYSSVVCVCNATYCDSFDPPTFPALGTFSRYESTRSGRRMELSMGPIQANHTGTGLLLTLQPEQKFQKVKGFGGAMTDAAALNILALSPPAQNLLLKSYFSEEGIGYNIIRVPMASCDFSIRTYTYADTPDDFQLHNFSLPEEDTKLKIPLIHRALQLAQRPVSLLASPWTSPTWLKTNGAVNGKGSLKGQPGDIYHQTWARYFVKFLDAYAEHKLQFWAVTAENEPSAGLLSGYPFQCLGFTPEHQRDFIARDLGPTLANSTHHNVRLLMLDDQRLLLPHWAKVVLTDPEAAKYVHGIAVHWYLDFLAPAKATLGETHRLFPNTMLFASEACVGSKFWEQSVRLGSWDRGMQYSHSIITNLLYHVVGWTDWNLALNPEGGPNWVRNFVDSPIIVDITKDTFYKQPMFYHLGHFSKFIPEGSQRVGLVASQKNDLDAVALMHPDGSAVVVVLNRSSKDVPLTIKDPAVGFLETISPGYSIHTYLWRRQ
- METHOD_DESCRIPTION: Glucocerebrosidase (Gcase) activation assay, 4-methylumbelliferyl-beta-D-glucopyranoside substrate, with saposin C
- Type: biochemical
- SETUP_CONDITIONS: 0.1 μM test compound; 10 nM GCase, 100 nM saposin C, pH 4.7; read-out: Percent Gease Activation 0.1 μM Test Compound
READOUT_LABEL: activation at 0.1 µM

Q: Fill in: activation at 0.1 µM of "COCc1cc(C(C)C)nc2c(C(=O)NC(C)(C)c3cccc(OC4CC4)c3)ncn12" is ___
A: 10 to 20%

Q: Request: "C#Cc1ccc(NC(=O)c2ncn3c(C)cc(C)nc23)c(F)c1"
A: 10 to 20%

Q: Moving on to Cc1cc(C)n2cnc(C(=O)NC3CCCc4ccccc43)c2n1 (stereo not drawn)
A: < 10%

Q: Another molecule to look at: "COc1ccccc1[C@@H](C)NC(=O)c1ncn2c(C)cc(C)nc12"
A: < 10%

Q: Could you do the same for "Cc1cc(C)n2cnc(C(=O)Nc3ccc4[nH]c(-c5ccco5)nc4c3)c2n1" , please?
A: < 10%

Q: Also check "C#Cc1cccc(C(C)(C)NC(=O)c2ncn3c(C)cc(C)nc23)c1"
A: 10 to 20%

Q: Try COCc1cc(C2CC2)n2cnc(C(=O)NC3(C)CCOc4c(F)ccc(F)c43)c2n1 (stereo not drawn) next.
A: < 10%

Q: Same thing, different molecule: "CCCOc1cccc(C(C)(C)NC(=O)c2ncn3c(COC)cc(COC)nc23)c1"
A: 10 to 20%

Q: Next entry: "Cc1cc(C)n2cnc(C(=O)Nc3ccc(Cl)c(-c4cnco4)c3)c2n1"
A: < 10%

Q: What do you get for "Cc1cc(C)n2cnc(C(=O)N[C@H]3CC[C@H](OC4CCC(C)(C)CC4)CC3)c2n1" ?
A: 10 to 20%

Q: Would you mind doing "CO[C@H]1CC[C@H](C(C)(C)NC(=O)c2ncn3c(C)cc(C)nc23)CC1" as well?
A: < 10%

Q: Same read-out for "COc1cc(NC(=O)c2ncn3c(C)cc(C)nc23)ccc1-c1cnco1" ?
A: < 10%

Q: Could you do the same for "C#Cc1ccc(NC(=O)c2ncn3c(C)cc(C)nc23)cc1F" , please?
A: 10 to 20%

Q: Can you check "Cc1cc(C)n2cnc(C(=O)N[C@@H](C)c3cccc(Cl)c3)c2n1" next?
A: < 10%

Q: # repeat for "CCCCO[C@@H]1[C@@H]2CC[C@H]1C[C@@H](NC(=O)c1ncn3c(C)cc(C)nc13)C2"
A: 10 to 20%

====

- METHOD_DESCRIPTION: Compound solubility in water
- Format: physicochemical
Record form. Attribute: solubility. Fill in for each entry.
Number only, in µg/mL; omit the unit.

Q: Requested read-out: solubility. Entry: "CCCOc1cccc(C(C)(C)NC(=O)c2ncn3c(COC)cc(COC)nc23)c1"
A: 37.6

Q: Now the compound Cc1cc(C(C)C)n2cnc(C(=O)NC3(C)CCOc4c(F)cccc43)c2n1 (stereo not drawn)
A: 28

Q: And what about the compound "CCOCc1cccc(C(C)(C)NC(=O)c2ncn3c(C(C)C)cc(COC)nc23)c1" ?
A: 31.2

Q: Then what about the compound Cc1cc(C)n2cnc(C(=O)NC3CCc4ccccc43)c2n1 (stereo not drawn) ?
A: 21

Q: Okay, and O=C(NC1CCCc2ccccc21)c1ncn2c(C(F)F)cc(C(F)F)nc12 (stereo not drawn) ?
A: 17.2

Q: Another: "Cc1cc(C)n2cnc(C(=O)NC(C)(C)c3cccc(Cl)c3)c2n1"
A: 14.8

Q: // next record "Cc1cc(C)n2cnc(C(=O)Nc3ccc4c(c3)CC(=O)N4)c2n1"
A: 6.4

Q: Further, for Cc1cc(C(F)(F)F)nc2c(C(=O)NC3(C)CCCc4ccccc43)ncn12 (stereo not drawn) ?
A: 24.9

Q: Similarly, "Cc1cc(C)n2cnc(C(=O)Nc3ccc4c(c3)OCO4)c2n1" ?
A: 3.4
